# Test system: P388/ADR
# protocolNotes: cells
# Assay type: functional
# experimentalParameters: Mus musculus
Active and inactive are the calls of the source.
Please reply with one of these outcomes: active, inactive

Some solved cases for reference:
molecule | categoryLabel
CC[C@@]1(O)C[C@H](OC2CC(N(C)C)C(O)C(C)O2)c2c(cc3c(c2O)C(=O)c2c(O)ccc(O)c2C3=O)[C@H]1C(=O)OC (stereo not given in full) | active
COC(=O)C1C(O)C(C)C(O)OC1C(C)C(O)C(C)/C=C\C=C(/C)C(=O)Nc1c(C)c(OC(C)=O)c2c(c1O)C(=O)C(C)=C1OCOC(/C(C)=C/C(C)=O)=C12 (stereo not given) | inactive
COc1cc(O)c2c(c1)C(=O)c1cc3c(c(O)c1C2=O)C(OC1OC(C)C(O)C(O)C1OC)C(OC)C(C)(O)C3=O (stereo not given) | inactive
O=Cc1c(Cn2ccnc2)c2cc([N+](=O)[O-])ccc2n1Cc1ccccc1 | inactive

We next turn to a different molecule, shown below.
Q) Could you kindly confirm the outcome this assay logged for O=C(NC(Cc1ccc(I)cc1)C(=O)O)c1ccc(Cl)cc1 (stereo not given) ?
A) inactive

====

Reported EC50 values follow for various compounds
# Tested on: H4
# protocolNotes: Luminescence Cell-Based Dose Response HTS to Identify Activators of 5'UTR Stem-Loop Driven Prion Protein mRNA Translation in H4 Neuroglioblastoma Cells. [Related pubchem assays: 1829 (Project Summary), 1814 (Primary HTS)]
# Format: functional
# experimentalParameters: Homo sapiens
The source made the active and inactive calls.

Recorded EC50, per entry:
compound | measuredValue
O=C(CC1Sc2ccccc2NC1=O)c1ccc(Br)cc1 (configuration not stated) | 36.6 µM (active)
Nc1cc(C2CCCC2)nn1-c1ccccc1 | 6.8 µM (active)
Cc1sc2c(c1C)CN(CCN1CCOCC1)CN2C(=O)c1ccccc1 | > 120 µM (not active)
Cc1ccc(-n2c(C)cc(/C=C3\SC(=O)NC3=O)c2C)cc1 | 0.749 µM (active)
Cc1ccc(NCC(=O)N=Nc2c(O)[nH]c3ccc([N+](=O)[O-])cc23)cc1 | 0.303 µM (active)

Q) Param readout= EC50; system= H4; entry= Cc1cccc(C(=O)NNC(=O)c2ccc(Cl)cc2)c1O ; returns value.
A) 98.9 µM (active)

Q) Under H4: EC50 value of CCOC(=O)C1(Cc2cccc(OC)c2)CCCN(C(=O)CCc2cccnc2)C1 (configuration not stated) ?
A) > 120 µM (not active)

====

# system: Paired box protein Pax-8 (Homo sapiens)
# Sequence (Q06710 whole entry): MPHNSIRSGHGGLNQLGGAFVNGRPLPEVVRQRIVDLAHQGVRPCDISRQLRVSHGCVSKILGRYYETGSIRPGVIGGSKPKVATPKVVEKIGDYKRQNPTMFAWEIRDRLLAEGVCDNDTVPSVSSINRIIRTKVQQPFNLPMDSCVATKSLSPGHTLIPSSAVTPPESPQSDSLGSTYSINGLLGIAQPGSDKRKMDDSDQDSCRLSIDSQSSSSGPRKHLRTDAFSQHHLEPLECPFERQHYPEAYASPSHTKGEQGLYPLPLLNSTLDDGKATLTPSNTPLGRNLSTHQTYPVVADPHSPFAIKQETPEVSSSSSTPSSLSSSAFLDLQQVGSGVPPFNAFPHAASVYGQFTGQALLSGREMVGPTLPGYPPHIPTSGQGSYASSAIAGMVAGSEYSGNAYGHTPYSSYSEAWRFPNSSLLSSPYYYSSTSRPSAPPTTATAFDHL
# protocolNotes: PAX8 transcriptional activity inhibition in RMG-I – RMG-I cells, luciferase, cherry-pick, dose response (AID 687027);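 also: luciferase reporter driven by Pax8 target thyroperoxidase promoter measured by SteadyGlo luminescence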
# Type: functional, cell-based
Active and inactive are the calls of the source.
propertyName: AC50

structureSmiles | propertyName | measuredValue
C[C@@H]1CN([C@H](C)CO)C(=O)c2cc(NC(=O)Nc3ccc(F)cc3)ccc2O[C@@H](C)CCCCO[C@H]1CN(C)S(=O)(=O)c1ccccc1 | AC50 | 4.82 µM (active)

Q) // map CC(=CCOc1ccc2ccc(=O)oc2c1)C1=CC(=O)C(C)(C)O1 to recorded AC50 (system: Paired box protein Pax-8 (Homo sapiens))
A) 4.95 µM (active)

Q) For Paired box protein Pax-8 (Homo sapiens), provide AC50 of C[C@H](CO)N1C[C@H](C)[C@H](CN(C)S(=O)(=O)c2ccc(Cl)cc2)OCc2ccccc2-c2c(n(C)c3ccccc23)C1=O please.
A) 4.86 µM (active)

Q) Find the measured AC50: item COc1cccc(C#Cc2ccc([C@H]3[C@@H](CO)N(C(=O)C4CCCCC4)[C@H]3C#N)cc2)c1 , target or system Paired box protein Pax-8 (Homo sapiens).
A) 3.39 µM (active)

Value source: ChEMBL document CHEMBL1201862
